Experimental system: UniProt O35678
Sequence (O35678 1-303): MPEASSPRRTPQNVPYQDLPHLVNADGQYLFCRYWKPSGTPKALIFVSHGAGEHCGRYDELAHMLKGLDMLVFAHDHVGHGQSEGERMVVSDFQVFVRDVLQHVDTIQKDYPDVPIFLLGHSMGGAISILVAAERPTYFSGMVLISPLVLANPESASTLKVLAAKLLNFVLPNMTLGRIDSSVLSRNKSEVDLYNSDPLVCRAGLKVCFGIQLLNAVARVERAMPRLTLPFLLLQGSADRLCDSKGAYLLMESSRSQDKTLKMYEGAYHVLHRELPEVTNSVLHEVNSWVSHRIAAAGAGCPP
Assay explanation: In vitro competitive activity-based protein profiling, MAGL, mouse
Measurement setup: read-out: MAGL % inh. 1 μM (mouse)
Result type: inhibition at 1 µM

Below are worked cases with known answers.
In [3]: df
Out[3]:
                                   compound  experimental_system         result_type  reported_result
0  O=C(O)c1ccn(C(=O)N2CCC3(CCN(Cc4ccc(N5CC6COCC6C5)cc4Cl)C3)CC2)n1 (stereo not drawn)       UniProt O35678  inhibition at 1 µM         0 to 25%
1  O=C(O)c1ccn(C(=O)N2CCC3(CCN(Cc4c(Cl)cccc4C(F)(F)F)C3)CC2)n1       UniProt O35678  inhibition at 1 µM            > 75%
2  O=C(O)c1ccn(C(=O)N2CCN(Cc3cc(F)cc(Oc4ccccc4Cl)c3)CC2)n1       UniProt O35678  inhibition at 1 µM            > 75%
3  O=C(O)c1ccn(C(=O)N2CCC3(CCCN3Cc3cc(Cl)cc(C(F)(F)F)c3)CC2)n1       UniProt O35678  inhibition at 1 µM            > 75%
4  O=C(O)c1ccn(C(=O)N2CCC(Oc3cc(N4CCCC4)cc(C(F)(F)F)c3)CC2)n1       UniProt O35678  inhibition at 1 µM            > 75%

Prompt: // lookup inhibition at 1 µM | system=UniProt O35678 | key= "O=C(O)c1ccn(C(=O)N2CCN(Cc3cccc(Oc4ccc(F)cc4)c3)CC2)n1"
Completion: > 75%

Prompt: // lookup inhibition at 1 µM | system=UniProt O35678 | key= "C[C@@H]1C[C@H](N(C)Cc2cccc(C(F)(F)F)c2)CCN1C(=O)n1ccc(C(N)=O)n1"
Completion: > 75%

Prompt: // lookup inhibition at 1 µM | system=UniProt O35678 | key= O=C(O)c1ccn(C(=O)N2CCC3(CCCN3Cc3ccc(C(F)(F)F)cc3N3CC4COCC4C3)CC2)n1 (stereo not drawn)
Completion: > 75%

Prompt: // lookup inhibition at 1 µM | system=UniProt O35678 | key= O=C(O)c1ccn(C(=O)N2CC3CN(Cc4cccc(-c5ccccc5)c4)CC3C2)n1 (stereo not drawn)
Completion: > 75%

Prompt: // lookup inhibition at 1 µM | system=UniProt O35678 | key= "CN(Cc1ccc(Cl)c(N2CCCC2)c1)C1(C)CCN(C(=O)n2ccc(C(=O)O)n2)CC1"
Completion: > 75%

Prompt: // lookup inhibition at 1 µM | system=UniProt O35678 | key= "CN(Cc1ccccc1Cl)[C@H]1C[C@@H]2CN(C(=O)n3cc(Cl)c(C(N)=O)n3)C[C@@H]2C1"
Completion: > 75%

Prompt: // lookup inhibition at 1 µM | system=UniProt O35678 | key= "O=C(O)c1ccn(C(=O)N2CCC3(CCCN3Cc3ccc(C(F)(F)F)cc3N3CCN4CCC[C@@H]4C3)CC2)n1"
Completion: 0 to 25%

Prompt: // lookup inhibition at 1 µM | system=UniProt O35678 | key= "O=C(O)c1ccn(C(=O)N2C[C@H]3C[C@H](Oc4cccc(-c5ccccc5)c4)C[C@H]3C2)n1"
Completion: > 75%

Prompt: // lookup inhibition at 1 µM | system=UniProt O35678 | key= "O=C(O)c1ccn(C(=O)N2CCC3(CC2)CN(Cc2cc(Cl)ccc2C(F)(F)F)C3)n1"
Completion: > 75%

Prompt: // lookup inhibition at 1 µM | system=UniProt O35678 | key= "CN(Cc1cccc(-c2ccccc2)c1)[C@@H]1C[C@@H]2CN(C(=O)n3ccc(C(=O)O)n3)C[C@@H]2C1"
Completion: 0 to 25%
